MEASUREMENT PROTOCOL: Oral vemurafenib plasma pharmacokinetics in tumor‐free WT and Abcb1a/b;Abcg2−/− FVB nude mice
Assay type: in vivo
STUDY CONDITIONS: FVB nude, mouse, plasma, po, 25 mg/kg, WT mice, 25 mg·kg^−1 p.o., mean ± SD
PARAMETER MEASURED: Cmax (ng/mL)
Hi! Could you send only the number? It should be in ng/mL, unit omitted.

Form: compound = "CCCS(=O)(=O)Nc1ccc(F)c(C(=O)c2c[nH]c3ncc(-c4ccc(Cl)cc4)cc23)c1F" ; Cmax = 42000

* * *

MEASUREMENT PROTOCOL: Oral vemurafenib plasma pharmacokinetics in tumor‐free WT and Abcb1a/b;Abcg2−/− FVB nude mice
Format: in vivo
STUDY CONDITIONS: FVB nude, mouse, plasma, po, 10 mg/kg, plasma, WT mice, 10 mg·kg^−1 p.o. + elacridar 100 mg·kg^−1 p.o. 4 h before, mean ± SD
PARAMETER MEASURED: Cmax (µg/mL)
Hi! Could you send only the number? It should be in µg/mL, unit omitted.

Form: compound = "CCCS(=O)(=O)Nc1ccc(F)c(C(=O)c2c[nH]c3ncc(-c4ccc(Cl)cc4)cc23)c1F" ; Cmax = 12

Values from paper PMC10761933
